Origin of values: ChEMBL document CHEMBL1765048

Please respond with reported Ki for every item in the list.
TARGET ENTITY: D(3) dopamine receptor (Homo sapiens, UniProt P35462)
PROTOCOL: Displacement of [3H]spiperone from human dopamine D3 receptor H6.55A mutant expressed in HEK293 cells after 60 mins
Answers are plain numbers, in nM.

# COMPOUND SMILES, READOUT UNITS, Ki
rows = [
    ("CCCN(CCC)[C@H]1CCn2nccc2C1", "nM", 420),
]

Below are 3 compounds. Give each one its Ki.
1. CCCN(CCCCNC(=O)c1ccc(-c2ccccc2)cc1)[C@@H]1CCn2nccc2C1
2. CCCN(CCCCNC(=O)c1ccc(-c2ccccc2)cc1)[C@H]1CCn2nccc2C1
3. COc1ccccc1N1CCN(CCCCNC(=O)c2ccc(-c3ccccc3)cc2)CC1

1: 43; 2: 0.98; 3: 0.58
